- Test system: MS2 coat protein
- procedureDetails: apparent KD of MS2 coat protein; designed switch direction (-1 OFF switch, 1 ON switch): -1; higher = weaker reporter binding
- measurementConditions: input ligand: microRNA oligo, concentration not stated
Quick rule: apparent KD of MS2 coat protein of at least 30 nM means Criterion met, below that means Criterion not met.

Exercise: Does apparent KD of MS2 coat protein meet or surpass 30 nM for UUUAUAUAUGAAGGAUAUACUUAACAUGAGGAUCACCCAUGUGGUGUUGUGAGUGAGUGAGUUUAGUAGAAGGUCAAUUAUUUU [JMF's solution 27] (Eterna round: R96, puzzle: Exclusion NG 2) ?
Key: Criterion met

Exercise: Does apparent KD of MS2 coat protein meet or surpass 30 nM for AUCAGCUCGUGAGGAUAUAUUAACAUGAGGAUCACCCAUGUAAGAUCAGGCUUCGGCCAAUGUUAAUAGAAGGCACGAGCUGAU [ENG2/12-A2] (Eterna round: R96, puzzle: Exclusion NG 2) ?
Key: Criterion met

Exercise: Does apparent KD of MS2 coat protein meet or surpass 30 nM for AGCUGUGGCCGAGGAUAUCUGAACCUUCAAACCGAAAUAUAAUCGGACAUGAGGAUCACCCAUGUAGAGAAGGCGGUCUCAGCA [Eli eng2 - 060] (Eterna round: R96, puzzle: Exclusion NG 2) ?
Key: Criterion not met

Exercise: Does apparent KD of MS2 coat protein meet or surpass 30 nM for CGGGCCGGCCUUCCGGCCGGCCCGACAUGAGGAUCACCCAUGUAGGAUAUCCCGGCUGCCGGCCGGGAGAAGGGCGUGCGUCCU [-50.4, -49.5 kcal, 14% A] (Eterna round: R96, puzzle: Exclusion NG 3) ?
Key: Criterion met

###

- System: MS2 coat protein
- procedureDetails: apparent KD of MS2 coat protein; higher = weaker reporter binding
- measurementConditions: Eterna round: R107; input ligand: tryptophan 2.4 mM
measuredAttribute: apparent KD of MS2 coat protein (nM)
# value in nM; strip the unit string

Exercise: Name the value of apparent KD of MS2 coat protein reported for UAUCCACAUGAGGAUCACCCAUGUUAGGAAGGAGCGGUGAAUGCACCAGGUAGGUCGCCUAGCUGAGGACUGUCGGUGGAUUCGU [Exclusion - Arginine A (Freestyle 19)] when tested on MS2 coat protein.
Key: 40.3

Exercise: Name the value of apparent KD of MS2 coat protein reported for GUAGCGACGACGGCCGCCACUCACAGGUGAGGGUAGACCAACCUUCACAUGAGGAUCACCCAUGUGAGGACCGGGUUGUCGGUAC [#11 Exclusion Tryptophan B] when tested on MS2 coat protein.
Key: 146

Exercise: Name the value of apparent KD of MS2 coat protein reported for ACACAUGAGGAUCACCCAUGUGCGCUGGAAGGAGCGCAGAAUCAUGCAGGUAGGUCGCCAGUGCCUUUUGAUAAAGGGAAAAGAA [Cezaquce] when tested on MS2 coat protein.
Key: 60.6

Exercise: Name the value of apparent KD of MS2 coat protein reported for AAAAUCCUAUCUGAGGAUCACCCAGGUGAAGGAGCGCCCGAAAGGGCAGGUAGGUCGCACCUGAGGAUCACCCUGGUAACCUAAA [ArgEX 10 #DoubleMS2 #OpenEnded #AlternativeMS2] when tested on MS2 coat protein.
Key: 88.5

Exercise: Name the value of apparent KD of MS2 coat protein reported for GUAUACAUGAGGAUCACCCAUGUGCCAGAAGGAGCGCUGGAAACGGCAGGUAGGUCGCUGGUAGGUCCUCUAUCUAGACGUUCGG [#17 Exclusion - Arginine A] when tested on MS2 coat protein.
Key: 60.3

Exercise: Name the value of apparent KD of MS2 coat protein reported for CCCUGGGUGGGAAGGAGCGCAUAGUGAACAUGAGGAUCACCCAUGUGUAGACGUGAGUCACUGCAGGUAGGUCGCCCACCCAGGG [SS-ArgB23] when tested on MS2 coat protein.
Key: 29.5

Exercise: Name the value of apparent KD of MS2 coat protein reported for ACAUGAGGAUCACCCAUGUACAUGAGGGAAGGAGCGGUACAUGUGCCAGGUAGGUCGCCCAUGAGCAUCAGCCAUGUACAUCAGC [l,ommullin] when tested on MS2 coat protein.
Key: 75

Exercise: Name the value of apparent KD of MS2 coat protein reported for GCACAUGAGGAUCACCCAUGUAUUACUGAAGGAGCGAGACAGAACUCAGGUAGGUCGCAGACUGCACAAUUGCGGACGACAUGGG [Exclusion Arginine A GF22] when tested on MS2 coat protein.
Key: 34.3

Exercise: Name the value of apparent KD of MS2 coat protein reported for AGUAUCAGUGGAAGGAGCGUCGCGAAUGUCACAUGAGGAUCACCCAUGUCGUCUUGAGCGCGACAGGUAGGUCGCCACGGUAGGC [SS-ArgB4] when tested on MS2 coat protein.
Key: 13.5

Exercise: Name the value of apparent KD of MS2 coat protein reported for GAUGAAGUAACUGAUACCAGUGUACUGACAUGAGGAUCACCCAUGUUGGGUUUUGUUGUACACCCUUGGCAGCAGAAUCUUUAUC [AstrosExyTheB#5] when tested on MS2 coat protein.
Key: 45.8

Exercise: Name the value of apparent KD of MS2 coat protein reported for GUCCUAGCGAGCACUCGCUAGGACGCGGAUACCAGCGAGGUCCAUCGCCCUUGGCAGCCGAACAUGAGGAUCACCCAUGUCGGUA [#1 Same State - Theophylline A Attempt #17 (HarryS)] when tested on MS2 coat protein.
Key: 9.86

Exercise: Name the value of apparent KD of MS2 coat protein reported for CUGACAGACUCGGCCGCCACUGAUAGUAGGACAUGAGGAUCACCCAUGUAAACAAACCUCAUAGCCAGGACCGGGAGUCACGAAG [Same State Tryptophan B GF 21] when tested on MS2 coat protein.
Key: 24.9

Exercise: Name the value of apparent KD of MS2 coat protein reported for UGACGAUACCUGGAUACCAGCGACAUGAGGAUCACCCAUGUAUGAGGAUCAGCCAUGUUAUGCCCUUGGCAGCCACGAAAGUCUU [UUUMULLIN] when tested on MS2 coat protein.
Key: 40.3

Exercise: Name the value of apparent KD of MS2 coat protein reported for CAUUAAUUACGAAGGAGCGUCGAAAAUGGGUAAACAUGAGGAUCACCCAUGUAAAGGGAACGACAGGUAGGUCGCGUAAUUAAUG [AstromonsSSArgB#2] when tested on MS2 coat protein.
Key: 158

Exercise: Name the value of apparent KD of MS2 coat protein reported for GCUAGGUCAUCGGCCGCCACUAACGAAGGUUCGAACAUGAGGAUCACCCAUGUGCCACAUGCGCAUAGGACCGGGAUGACCUAGC [SSTB NP+V+V2 #7 +-Same Structure] when tested on MS2 coat protein.
Key: 11.4

Exercise: Name the value of apparent KD of MS2 coat protein reported for AUGUCUGAGUCGGCCGCCACUGGGUGUGGGUGAUGCCGGAUGUUGUACAUGAGGAUCACCCAUGUCAGGACCGGGAUUCCCACGA [Receve] when tested on MS2 coat protein.
Key: 10.2

Exercise: Name the value of apparent KD of MS2 coat protein reported for GUAUCUAUGUGAAAUAGAUAUGUAACUGAAGGAGCGUCAUUAAGGACAGGUAGGUCGCGGAGCACAUGAGGAUCACCCAUGUCGG [#09 Same State - Arginine A] when tested on MS2 coat protein.
Key: 34.3

Exercise: Name the value of apparent KD of MS2 coat protein reported for AUUAUCAUGGUCAUAUAUAUUUCGUCAGAUACCAGACUAGAUAUAGUCCCUUGGCAGCUGUUACAUGAGGAUCACCCAUGUUAUA [JR_ExcTheophyA_Sub016] when tested on MS2 coat protein.
Key: 93.3

Exercise: Name the value of apparent KD of MS2 coat protein reported for AAACGCCACGGAAGGAGCGACAUGAGGAUCACCCAUGUAGAAGUGGCGGAUGCACCCUCCUGUCAGGUAGGUCGCCGUGCGCCAA [XArg-B24] when tested on MS2 coat protein.
Key: 22.4

Exercise: Name the value of apparent KD of MS2 coat protein reported for GCUGUAAGUGCAGAUACCAGCAGGUGAUAUUUCUAAUGACAUGAGGAUCACCCAUGUAACUGCCCUUGGCAGCUGCACUUACAGC [SSTHB #8] when tested on MS2 coat protein.
Key: 59.6

Exercise: Name the value of apparent KD of MS2 coat protein reported for UUAAUCUAUGAAGAAAACUUUAUAGCAGAAGGAGCGUGAUAAAACACAGGUAGGUCGCUGAAGGGAACAUGAGGAUCACCCAUGU [AstrosSSArgA#19] when tested on MS2 coat protein.
Key: 26.5

Exercise: Name the value of apparent KD of MS2 coat protein reported for CCUAUUCCUACGGAUACCAGACGAUCCGUGGCGUGUGUGAACAUGAGGAUCACCCAUGUAGUCCCUUGGCAGCCGAUGCGGGUAA [theeternabot_exclusion_MS2_Theo_B_10] when tested on MS2 coat protein.
Key: 33.5

Exercise: Name the value of apparent KD of MS2 coat protein reported for GCUUGGGUGGCCCAGCCCUGGCAGGGCGAUACCAGCCCGGUAACGGGCCCUUGGCAGCGCACAUGAGGAUCACCCAUGUGGUGCG [#1 Exclusion - Theophylline A Attempt #28 (HarryS)] when tested on MS2 coat protein.
Key: 44.9

Data provenance is the supplement of paper PMC9170038.
